Experiment: Polymorphism screen of hydrochloride and benzoate salts: thermal cycling, evaporation, antisolvent addition, cooling (XRPD)
Type: physicochemical
Conditions: hydrochloride salt, thermally cycled between ambient and 40° C., three days; solvent per experiment: -01 1,4-Dioxane, -02 1-Propanol, -03 2-Butanol, -04 2-Ethoxyethanol, -05 2-Methyltetrahydrofuran, -06 2-Propanol, -07 Acetone, -08 Acetonitrile, -09 Anisole, -10 Chlorobenzene, -11 Ethanol, -12 Ethyl acetate, -13 Isopropyl acetate, -14 Methanol, -15 Propyl acetate, -16 Methylethyl ketone, -17 Forma
reported_metric: 3-day Observations

Worked cases, 3-day Observations given:
COc1ccc2[nH]cc(CCN(C)C)c2c1.Cl [DJP2202-007-12]; white solid
COc1ccc2[nH]cc(CCN(C)C)c2c1.Cl [DJP2202-007-04]; clear solution
COc1ccc2[nH]cc(CCN(C)C)c2c1.Cl [DJP2202-007-10]; white solid
COc1ccc2[nH]cc(CCN(C)C)c2c1.Cl [DJP2202-007-07]; few crystals
COc1ccc2[nH]cc(CCN(C)C)c2c1.Cl [DJP2202-007-06]; few crystals
COc1ccc2[nH]cc(CCN(C)C)c2c1.Cl [DJP2202-007-02]; few crystals

Given the compound COc1ccc2[nH]cc(CCN(C)C)c2c1.Cl [DJP2202-007-05] , what is its reported 3-day Observations?
few crystals

Given the compound COc1ccc2[nH]cc(CCN(C)C)c2c1.Cl [DJP2202-007-25] , what is its reported 3-day Observations?
clear solution

Given the compound COc1ccc2[nH]cc(CCN(C)C)c2c1.Cl [DJP2202-007-19] , what is its reported 3-day Observations?
clear solution

Given the compound COc1ccc2[nH]cc(CCN(C)C)c2c1.Cl [DJP2202-007-21] , what is its reported 3-day Observations?
few crystals

Given the compound COc1ccc2[nH]cc(CCN(C)C)c2c1.Cl [DJP2202-007-22] , what is its reported 3-day Observations?
few crystals

Given the compound COc1ccc2[nH]cc(CCN(C)C)c2c1.Cl [DJP2202-007-18] , what is its reported 3-day Observations?
clear solution

Given the compound COc1ccc2[nH]cc(CCN(C)C)c2c1.Cl [DJP2202-007-11] , what is its reported 3-day Observations?
white solid

Given the compound COc1ccc2[nH]cc(CCN(C)C)c2c1.Cl [DJP2202-007-03] , what is its reported 3-day Observations?
few crystals

====

Test: Polymorphism screen of hydrochloride and benzoate salts: thermal cycling, evaporation, antisolvent addition, cooling (XRPD)
Type: physicochemical
Settings: hydrochloride salt, thermally cycled between ambient and 40° C., three days; solvent per experiment: -01 1,4-Dioxane, -02 1-Propanol, -03 2-Butanol, -04 2-Ethoxyethanol, -05 2-Methyltetrahydrofuran, -06 2-Propanol, -07 Acetone, -08 Acetonitrile, -09 Anisole, -10 Chlorobenzene, -11 Ethanol, -12 Ethyl acetate, -13 Isopropyl acetate, -14 Methanol, -15 Propyl acetate, -16 Methylethyl ketone, -17 Forma
reported_metric: 3-day Observations

COc1ccc2[nH]cc(CCN(C)C)c2c1.Cl [DJP2202-007-24]; clear solution
COc1ccc2[nH]cc(CCN(C)C)c2c1.Cl [DJP2202-007-17]; few crystals
COc1ccc2[nH]cc(CCN(C)C)c2c1.Cl [DJP2202-007-20]; few crystals
COc1ccc2[nH]cc(CCN(C)C)c2c1.Cl [DJP2202-007-23]; clear solution
